Where do these numbers come from? They come from ChEMBL document CHEMBL3433997.

Measured inhibition of individual entries
biological target: Solute carrier family 2, facilitated glucose transporter member 1 (Homo sapiens) (UniProt P11166); assay: ST_JUDE_LEISH: Cytotoxicity at 2uM final concentration against transgenic Leishmania Mexicana promastigotes LmGLUT1 that are glucose transport deficient and complemented with the human glucose transporter GLUT1. Activity is measured by DNA content using SYBR green in vitro; format: functional
Sequence (P11166 whole entry): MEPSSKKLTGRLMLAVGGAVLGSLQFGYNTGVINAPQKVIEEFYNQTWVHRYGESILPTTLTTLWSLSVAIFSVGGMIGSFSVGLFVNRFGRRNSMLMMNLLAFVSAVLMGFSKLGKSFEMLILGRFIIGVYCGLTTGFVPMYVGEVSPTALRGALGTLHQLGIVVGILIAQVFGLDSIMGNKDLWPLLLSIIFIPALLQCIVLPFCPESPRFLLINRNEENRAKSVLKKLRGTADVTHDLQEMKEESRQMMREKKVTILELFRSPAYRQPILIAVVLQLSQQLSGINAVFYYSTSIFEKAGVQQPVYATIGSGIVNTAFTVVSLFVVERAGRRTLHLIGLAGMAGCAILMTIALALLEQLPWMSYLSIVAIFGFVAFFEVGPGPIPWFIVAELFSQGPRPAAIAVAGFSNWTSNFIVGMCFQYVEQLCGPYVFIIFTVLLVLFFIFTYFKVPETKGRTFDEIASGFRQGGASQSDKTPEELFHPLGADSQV
measured.parameter: inhibition (%)

1) NCc1ccc(-c2ccc3c(N)nccc3c2)cc1: -3.43
2) CN(C)Cc1cccc(-c2ccc(NC(=O)c3ccc4c(=O)n(Cc5ccoc5)cnc4c3)cc2)c1: 63.7
3) COc1ccc(-c2ccc(CN(C)C3CCC(NC(=O)c4cc5ccccc5[nH]4)CC3)cc2)cn1 (stereo not given): -1.44
4) O=C(Nc1ccccc1O)c1ccc(S(=O)(=O)c2ccc(Cl)cc2)cc1: 5.52
5) N#Cc1ccccc1S(=O)(=O)N1CCCC(CNC(=O)[C@H](CC2CCCCC2)NC(=O)c2cc3ccccc3s2)C1 (stereo not given in full): 1.08
6) CCCCNCC(O)COc1ccccc1-c1ccc(N/N=C/c2cccc3ccccc23)nn1 (stereo not given): 3.78
7) CCOC(=O)c1c[nH]c2c(ccc3ccccc32)c1=O: -1.23
8) CCCCCN1CCN(Cc2cccc(NC(=O)c3ccc(Cl)c(Cl)c3)c2)CC1: 1.39
9) Cc1cc(I)ccc1Nc1nc2nonc2nc1Nc1ccc(I)cc1C: 9.92
10) COc1ccc(Nc2nccc(NCC(O)c3cccc(C(F)(F)F)c3)n2)cc1 (stereo not given): 1.24

* * *

molecular target: Solute carrier family 2, facilitated glucose transporter member 1 (Homo sapiens) (UniProt P11166); assay: ST_JUDE_LEISH: Cytotoxicity at 2uM final concentration against transgenic Leishmania Mexicana promastigotes LmGLUT1 that are glucose transport deficient and complemented with the human glucose transporter GLUT1. Activity is measured by DNA content using SYBR green in vitro; assay type: functional
measured.parameter: inhibition

1) COc1ccc2nccc([C@@H](O)CN3CCC(NCc4ccc5c(n4)NCCC5)CC3)c2c1: 6.88%
2) COc1cc(F)c2ncc(Cl)c(CCN3CCC(NCc4ccc5c(c4)NC(=O)CO5)CC3)c2c1: 7.29%
3) CC(C)CCNC(=N)Nc1ccc(OCCCCCOc2ccc(NC(=N)NCCC(C)C)cc2)cc1: 6.46%
4) CCOc1ccc2nc3cc(NC(=O)c4ccco4)ccc3c(N)c2c1: 3.66%
5) CCN(CC)CCc1ccc2c(=O)cc(CCc3cccc(F)c3F)n(CC(=O)N(C)Cc3ccc(-c4ccc(C(F)(F)F)cc4)cc3)c2c1: 5.18%

* * *

Measured inhibition of individual entries
molecular target: Glucose transporter (Leishmania mexicana) (UniProt O61059); test: ST_JUDE_LEISH: Cytotoxicity at 2uM final concentration against transgenic Leishmania Mexicana promastigotes LmGT2 that are glucose transport deficient and complemented with the L. Mexicana glucose transporter 2. Activity is measured by DNA content using SYBR green in vitro; format: functional
measured.parameter: inhibition (%)

1. COc1cccc2cc(C(=O)N[C@@H](CC(C)C)C(=O)N[C@H](C=NN3CCOC3=O)Cc3ccccc3)oc12: -0.91
2. Fc1ccc(CNc2ncc(-c3ccsc3)c(-c3nccs3)n2)cc1: 0.95
3. NC1=NC(c2ccccc2)N(c2ccccc2)C(N)=N1 (stereo not drawn): -0.58
4. COc1cccc(C(=O)Nc2ccc(Nc3nc(C)cc(N(C)C)n3)cc2)c1: 7.09
5. Cc1nc2nc(N)nc(N)c2c(C)c1Cc1ccc(C(N)=O)cc1: 0.21
6. c1cc(CNCCc2ccncc2)cc(-c2cccc(-c3nc4ccccc4[nH]3)c2)c1: 10
7. O=C(Nc1ccc(Oc2ccccc2)cc1)N(Cc1ccc(-c2cccc(CN3CCNCC3)c2)cc1)C1CCN(Cc2ccccc2)CC1: 3.01
8. Cn1cncc1C(=O)Nc1cccc(-c2cccc(-c3nc4ccccc4[nH]3)c2)c1: 5.38
9. COc1ccc2c(N/N=C/c3ccc([N+](=O)[O-])cc3)ccnc2c1: 2.7
10. O=S(=O)(c1ccc(Cl)cc1Cl)N1CCCCC(c2ccc(C(F)(F)F)cc2)=N1: 1.07
11. COc1cc2c(cc1CCNCCCCNCCc1cc3c(cc1OC)CCCC3)CCCC2: 106
12. Nc1nc(N)c2c(ccc3c2ccn3C2C=CCCC2)n1 (stereo not drawn): 34.4
13. O=C(CCOc1ccccc1)NCC1CCCO1 (stereo not drawn): 1.06

* * *

molecular target: Glucose transporter (Leishmania mexicana) (UniProt O61059); assay: ST_JUDE_LEISH: Cytotoxicity at 2uM final concentration against transgenic Leishmania Mexicana promastigotes LmGT2 that are glucose transport deficient and complemented with the L. Mexicana glucose transporter 2. Activity is measured by DNA content using SYBR green in vitro; type: functional
measured.parameter: inhibition (%)

1) COc1cc(CCN(C)Cc2ccc(OC)c(OC)c2)ccc1NC(=O)c1cccc2c(O)c3cccc(F)c3nc12: 3.27
2) CCN(CCCN1CCCCC1)c1cc(C)nc(Nc2ccc(C)cc2C(F)(F)F)n1: -1.54
3) Cc1c(C2CCN(CCCCNC(=O)c3ccc(-c4ccc(C#N)cc4)cc3)CC2)c2ccccc2n1CCO: 3.72
4) NC(=O)COc1cccc2c1CCN(CCN1CCC(NC(=O)c3ccc(-c4ccc(Cl)cc4)cc3)CC1)C2: 2.71

* * *

target: Solute carrier family 2, facilitated glucose transporter member 1 (Homo sapiens) (UniProt P11166); test: ST_JUDE_LEISH: Cytotoxicity at 2uM final concentration against transgenic Leishmania Mexicana promastigotes LmGLUT1 that are glucose transport deficient and complemented with the human glucose transporter GLUT1. Activity is measured by DNA content using SYBR green in vitro; format: functional
Measured inhibition of individual entries
measured.parameter: inhibition (%)

1) O=C(Nc1ccc(-c2ccccc2)cc1)Nc1cccc(OCCN2CCCC2)c1: 7.09
2) CCCNC(=O)C1Cc2cc(OC)c(OC)cc2C2(N1)C(=O)N(Cc1cccc(OC)c1)c1ccccc12 (stereo not given): -1.15
3) Cc1ccc(C2(C)CN(CCCOc3cccc(-c4ccc(C(=O)NC(C)C)cc4)c3)CCO2)cc1 (stereo not given): 0.12
4) O=C(CCc1ccccc1)N[C@H](Cc1c[nH]c2ccccc12)C(=O)N1CCC(NCc2ccc3c(c2)Cc2ccccc2-3)CC1: 7.69
5) NC1CCCN(Cc2ccc(-c3cccc(-c4nc5cc(F)ccc5[nH]4)c3)cc2)C1 (stereo not given): -0.79

* * *

biological target: Hexose transporter 1 (Plasmodium falciparum) (UniProt O97467); experiment: ST_JUDE_LEISH: Cytotoxicity at 2uM final concentration against transgenic Leishmania Mexicana promastigotes LmPfHT that are glucose transport deficient and complemented with the Plasmodium falciparum hexose transporter. Activity is measured by DNA content using SYBR green in vitro; assay type: functional
measured.parameter: inhibition

1) CC(Cc1ccc(C(=O)N2CCN(C(=O)c3ccc(CC(C)NCCc4cccc(Cl)c4)cc3)CC2)cc1)NCCc1cccc(Cl)c1 (stereo unspecified): 3.6%
2) COc1cc(Nc2nccc(N3CCC(NC(=O)Nc4cc(C)ccc4C)C3)n2)cc(OC)c1OC (stereo unspecified): 1.62%
3) COc1ccc2ncc(F)c(CCN3CCC4(CC3)COC(c3cc5c(cn3)OCCO5)=N4)c2n1: 7.42%
4) CC(C)(CN)c1nc(-c2ccc(Cl)c(O)c2)c(-c2ccncc2)[nH]1: 0.02%
5) COc1ccc(NC(=O)c2ccc(C=Cc3ccc(C(F)(F)F)cc3)cc2)cc1N1CCN(C)CC1: 0.25%
6) Cc1cccc2nc(-c3cccc(-c4ccc(NC(=O)NC(C)C)cc4)c3)[nH]c12: 2.42%
7) O=C(Nc1ccc(C(F)(F)F)cc1)c1cc(Br)cnc1NCCCn1ccnc1: -4.7%
8) COc1ccc(Nc2nccc(N3CCC(NC(=O)Nc4cc(C)ccc4C)C3)n2)cc1 (stereo unspecified): 7.52%
9) Cc1[nH]c(C)c(Cc2ccc(Oc3ccc(OC(F)(F)F)cc3)cc2)c(=O)c1Br: -0.95%
10) Cc1cc(C(=O)CN2C(=O)NC3(CCOc4ccccc43)C2=O)c(C)n1Cc1ccco1 (stereo unspecified): 4.77%
11) CCOC(=O)C1=C(C)NC2=C(C(=O)CC(C)(C)C2)C1c1ccc(Br)cc1 (stereo unspecified): 0.63%

* * *

Measured inhibition of individual entries
molecular target: Glucose transporter (Leishmania mexicana) (UniProt O61059); experiment: ST_JUDE_LEISH: Cytotoxicity at 2uM final concentration against transgenic Leishmania Mexicana promastigotes LmGT2 that are glucose transport deficient and complemented with the L. Mexicana glucose transporter 2. Activity is measured by DNA content using SYBR green in vitro; assay type: functional
measured.parameter: inhibition (%)

1) Cc1nnsc1C(=O)Nc1ccc(-c2cccc(-c3nc4cc(F)ccc4[nH]3)c2)cc1: -2.69
2) CN1CCN(CCc2ccc3nc(-c4csc(Cc5cc(Cl)ccc5OCc5ccccc5)n4)[nH]c3c2)CC1: -1.4
3) N=c1n(Cc2ccccc2)c2ccccc2n1CC(O)c1ccc(Cl)c(Cl)c1 (stereo not drawn): 1.3
4) COc1cc2c(c(Cl)c1OC)CCN(C(=O)C(F)(F)F)CC2c1ccccc1 (stereo not drawn): 4.64
5) Cc1ccc(C2CCN(CCCCNC(=O)c3ccc(-c4ccc(C(F)(F)F)cc4)cc3)CC2)c(O)c1: -0.78
6) CCCC(=O)Nc1ccc(OCCCN(Cc2ccccc2OC(F)(F)F)c2ccc(C#N)c(C(F)(F)F)c2)cc1: 5.47
7) Cc1c(Cl)cccc1S(=O)(=O)Nc1ccc(CCN2CCC(N)CC2)cc1: -2.13
8) Cc1ccc(C(C)C)cc1CON1C(=N)N=C(N)NC1(C)C: 10.9
9) COc1cccc2cc(C(=O)N[C@@H](CC(C)C)C(=O)Nc3cc(F)ccc3Br)oc12: 0.22
10) O=C(Nc1cccc(F)c1)N1CCC(NS(=O)(=O)c2ccc(Br)cc2)CC1: 2.63
11) CCOc1ccccc1CCNCC1CCN(CC2CCCCC2)CC1: 2.88
12) CC(C)(C)c1ccc(CN2CCC(CNC(=O)c3cc(-c4ccccc4C(F)(F)F)cs3)C2)cc1 (stereo not drawn): 1.21
13) N=C(N)NN=CC(=O)Nc1ccc(Cl)cc1: 8.24
14) O=C(NCCN1CCCCC1)c1ccc(Nc2nccc(Nc3ccc(Oc4ccccc4)cc3)n2)cc1: 16.6
15) CCN(CC)CCN(Cc1ccc(-c2ccc(C(F)(F)F)cc2)cc1)C(=O)Cn1c(CCc2ccccc2F)nc(=O)c2ccccc21: 2.3
16) Cc1ccc2c(OCCN3CCC(Cc4ccc5c(c4)NC(=O)CO5)CC3)cc(F)cc2n1: 0.63
17) CCn1c(Cc2ccccc2)nnc1Sc1ccc([N+](=O)[O-])c(C#N)c1: 3.87
18) COc1ccc2nc(-c3ccc(C(=O)NCCCN4CCN(c5cc(Cl)ccc5OC)CC4)cc3)[nH]c2c1: -0.2
19) COC(=O)c1ccc(N2CCN(CCCCNC(=O)c3ccc(NC(=O)c4ccc(Cl)cc4)cc3)CC2)c(OC)c1: 1.51
20) Cc1cccc(C)c1CNc1ccnc2cc(Br)ccc12: 5.92
21) CN1CCCN(Cc2cccc(-c3ccc(NC(=O)c4cccc(Cl)c4)cc3)c2)CC1: 69.1
22) Nc1ncc(-c2ccc(F)cc2)cc1-c1nc2ccc(Cl)cc2[nH]1: 2.11
23) CN(CCCNCc1cccc2ccccc12)CCCNCc1cccc2ccccc12: 1.98
24) COCCOc1cc(C)c(C2CCN(CCCCNC(=O)c3ccc(NC(=O)c4ccc(Cl)cc4)cc3)CC2)cc1C: 8.98
25) CCOC(=O)/C(=N\OC(C(=O)OC(C)(C)C)c1ccccc1)c1csc(NC(c2ccccc2)(c2ccccc2)c2ccccc2)n1 (stereo not drawn): 0.99
26) O=C(/C=C/c1ccc(Cl)c(Cl)c1)N1CCC(CCN2CCC(c3c[nH]c4ccncc34)CC2)CC1: 6.65
27) COc1ccc(C2C(C(=O)OC3CCCC3)=C(C)NC3=C2C(=O)CCC3)cc1Br (stereo not drawn): 0.31
28) OC(c1cccc(OCc2ccccc2)c1)C1CN(CCc2ccccc2)CCC1(O)c1ccccc1 (stereo not drawn): -0.2
